Reference source for all entries: ChEMBL document CHEMBL4680214

Tested on: HCT-116
Assay: Cytotoxicity against p53-deficient human HCT-116 cells incubated for 72 hrs by MTS assay
Assay type: functional, cell-based
Details: HCT-116, 72 h
pIC50: −log10 of the molar value.
Overview of recorded pIC50 for various compounds

Here is how some compounds turned out for pIC50.
[[record]]
compound_structure = "O=c1c(O)c(-c2ccccc2)[nH]c2cc(F)cc(F)c12"
target_under_test = "HCT-116"
measurement_kind = "pIC50"
reported_value = "< 4.30"

[[record]]
compound_structure = "O=c1c(O)c(-c2ccccc2)[nH]c2c(F)c(F)c(F)c(F)c12"
target_under_test = "HCT-116"
measurement_kind = "pIC50"
reported_value = "< 4.30"


Let us examine a further case.
Please give the documented pIC50 of O=c1c(O)c(-c2ccccc2)[nH]c2cc(F)c(N3CCOCC3)cc12
< 4.30
